Biological target: UniProt:Q8NET8
Sequence (Q8NET8 whole entry): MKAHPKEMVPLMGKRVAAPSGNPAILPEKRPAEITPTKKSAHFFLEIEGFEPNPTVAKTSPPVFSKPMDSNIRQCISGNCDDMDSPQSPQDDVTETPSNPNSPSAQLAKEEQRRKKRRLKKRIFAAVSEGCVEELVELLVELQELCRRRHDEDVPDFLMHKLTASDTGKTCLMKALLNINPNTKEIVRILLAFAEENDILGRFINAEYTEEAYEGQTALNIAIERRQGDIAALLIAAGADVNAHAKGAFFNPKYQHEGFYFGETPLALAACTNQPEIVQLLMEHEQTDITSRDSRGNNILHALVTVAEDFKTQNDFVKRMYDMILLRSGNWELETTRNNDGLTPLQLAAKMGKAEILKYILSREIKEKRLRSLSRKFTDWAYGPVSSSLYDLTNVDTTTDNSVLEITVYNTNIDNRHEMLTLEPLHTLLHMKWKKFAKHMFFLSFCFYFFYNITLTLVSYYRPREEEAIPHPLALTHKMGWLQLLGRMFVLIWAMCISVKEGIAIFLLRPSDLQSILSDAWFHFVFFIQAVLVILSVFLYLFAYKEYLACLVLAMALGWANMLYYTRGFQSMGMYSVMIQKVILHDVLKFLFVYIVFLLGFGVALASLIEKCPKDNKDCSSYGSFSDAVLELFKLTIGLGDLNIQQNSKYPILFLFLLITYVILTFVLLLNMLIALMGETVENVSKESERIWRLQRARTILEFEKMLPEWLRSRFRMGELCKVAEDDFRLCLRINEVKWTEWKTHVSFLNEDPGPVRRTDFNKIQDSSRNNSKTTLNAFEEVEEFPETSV
Test: Calcium flux assay (FLIPR TETRA), inhibition of the 2-APB response
Settings: recombinant HEK293 cells stably expressing TRPV3, Calcium-4 dye, 2-APB at its EC80
metric: IC50 (nM)
# value in nM; strip the unit string

State the recorded IC50 for this entry: OCC1(NCc2nc(-c3ccc(C(F)(F)F)cc3)ccc2F)CCCCC1
680

Record: CC(C)Oc1ccc(-c2ccc(F)c(CN[C@@H](CO)C(C)C)n2)cn1
500

CC[C@H](CO)NCc1nc(-c2ccc(C(F)(F)F)cc2)ccc1F , same question.
540

// query: OCC1(NCc2nc(-c3ccc(C(F)(F)F)cc3)ccc2F)CCCC1
290

Please give the result for CC(C)[C@H](CO)NCc1cccc(-c2cccc([Si](C)(C)C)c2)n1 too.
600
